- Tested on: NCI-H1355
- protocol.summary: relative viability (nuclei count vs DMSO), 5 days (fraction); higher = more cells survive
- condition.label: first compound 6.325 µM
endpoint.label: relative viability
Answer as a number with no unit attached.

molecule: Cc1csc(=NC2CCCCC2)n1/N=C/c1ccc(O)c(O)c1O [MIM1] + Nc1nc2[nH]cc(CCc3ccc(C(=O)N[C@@H](CCC(=O)O)C(=O)O)cc3)c2c(=O)[nH]1 [Pemetrexed] (partner 0.2 µM)
value.observed: 0.863

Requested read-out relative viability, target or system NCI-H1355, entry Cc1csc(=NC2CCCCC2)n1/N=C/c1ccc(O)c(O)c1O [MIM1] + O=C(CCCCCCC(=O)Nc1ccccc1)NO [Vorinostat] (partner 1 µM)
0.544

Could you do the same for Cc1csc(=NC2CCCCC2)n1/N=C/c1ccc(O)c(O)c1O [MIM1] + Cc1cc(Nc2cc(N3CCN(C)CC3)nc(Sc3ccc(NC(=O)C4CC4)cc3)n2)n[nH]1 [Tozasertib] (partner 0.1 µM) , please?
0.464

And Cc1csc(=NC2CCCCC2)n1/N=C/c1ccc(O)c(O)c1O [MIM1] + O=C(c1cc(Cc2n[nH]c(=O)c3ccccc23)ccc1F)N1CCN(C(=O)C2CC2)CC1 [Olaparib] (partner 8 µM) ?
0.603

Next molecule: Cc1csc(=NC2CCCCC2)n1/N=C/c1ccc(O)c(O)c1O [MIM1] + COc1cc2c(Oc3ccc(NC(=O)C4(C(=O)Nc5ccc(F)cc5)CC4)cc3F)ccnc2cc1OCCCN1CCOCC1 [Foretinib] (partner 0.25 µM)
0.87

And Cc1csc(=NC2CCCCC2)n1/N=C/c1ccc(O)c(O)c1O [MIM1] + COc1cccc2cc(-c3nc([C@H]4CC[C@H](C(=O)O)CC4)n4ncnc(N)c34)[nH]c12 [OSI-027] (partner 0.5 µM) ?
0.372

* * *

- Tested on: NCI-H2009
- protocol.summary: relative viability (nuclei count vs DMSO), 5 days (fraction); higher = more cells survive
- condition.label: first compound 20 µM
endpoint.label: relative viability

Provide the documented relative viability with NCI-H2009 as the system for Cc1csc(=NC2CCCCC2)n1/N=C/c1ccc(O)c(O)c1O [MIM1] + O=C(CCCCCCC(=O)Nc1ccccc1)NO [Vorinostat] (partner 1 µM)
0.372

Query Cc1csc(=NC2CCCCC2)n1/N=C/c1ccc(O)c(O)c1O [MIM1] + CS(=O)(=O)N1CCN(Cc2cc3nc(-c4cccc5[nH]ncc45)nc(N4CCOCC4)c3s2)CC1 [Pictilisib] (partner 1 µM) next
0.173

Another molecule to check: Cc1csc(=NC2CCCCC2)n1/N=C/c1ccc(O)c(O)c1O [MIM1] + Nc1nc2[nH]cc(CCc3ccc(C(=O)N[C@@H](CCC(=O)O)C(=O)O)cc3)c2c(=O)[nH]1 [Pemetrexed] (partner 0.2 µM)
0.884

Input Cc1csc(=NC2CCCCC2)n1/N=C/c1ccc(O)c(O)c1O [MIM1] + Cc1nc(Nc2ncc(C(=O)Nc3c(C)cccc3Cl)s2)cc(N2CCN(CCO)CC2)n1 [Dasatinib] (partner 0.075 µM)
0.123

Entry Cc1csc(=NC2CCCCC2)n1/N=C/c1ccc(O)c(O)c1O [MIM1] + CC(=O)Nc1cccc(-n2c(=O)n(C3CC3)c(=O)c3c(Nc4ccc(I)cc4F)n(C)c(=O)c(C)c32)c1 [Trametinib] (partner 0.02 µM) please
0.329

These data points were gathered from the supplement of paper PMC10307832.
